# System: normal primary NK cells, pool 1 (3 donors), resting (IL-2 0 ng/mL);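 also: normalised to DMSO-only wells as negative and benzethonium chloride as positive control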
# assayNotes: percent inhibition of viability; higher = more inhibition
# conditionDescription: 72 h; 1 nM
quantityKind: percent inhibition of viability (%)
Answers are plain numbers, in %.

Worked set:
Provide the documented percent inhibition of viability with normal primary NK cells, pool 1 (3 donors), resting (IL-2 0 ng/mL) as the system for CNC(=O)c1nn(C)c2c1C(C)(C)Cc1cnc(Nc3ccc(N4CCN(C)CC4)cc3)nc1-2 [Milciclib] (max concentration tested 10000 nM)
-2.66

percent inhibition of viability of CC(C)N(CCCNC(=O)Nc1ccc(C(C)(C)C)cc1)C[C@H]1O[C@@H](n2cc(Br)c3c(N)ncnc32)[C@H](O)[C@@H]1O [SGC0946] (max concentration tested 10000 nM) on normal primary NK cells, pool 1 (3 donors), resting (IL-2 0 ng/mL)?
15.8

Reported percent inhibition of viability for normal primary NK cells, pool 1 (3 donors), resting (IL-2 0 ng/mL), given Cc1cc(Nc2cc(N3CCN(C)CC3)nc(Sc3ccc(NC(=O)C4CC4)cc3)n2)n[nH]1 [Tozasertib] (max concentration tested 10000 nM) ?
2.84

Lab note: next compound to report on.
Can you look up percent inhibition of viability on normal primary NK cells, pool 1 (3 donors), resting (IL-2 0 ng/mL) for CON(C)C(=O)N1N=C(c2cc(F)ccc2F)S[C@@]1(CCCN)c1ccccc1 [ARRY-520] (max concentration tested 1000 nM) ?
-37.1

These data points were gathered from the supplement of paper PMC5908809.
